Give pIC50 for every item shown.
# system_tested: GST A3-3 (Homo sapiens, UniProt Q16772)
# stated_conditions: read-out: IC50 Values GST A3-3
One number for each entry, as −log10 of the molar value.

CCC[CH2][Sn]([CH2]CCC)([CH2]CCC)[O]C(C)=O :: 7.74

Would you mind telling me what pIC50 value was observed for `CC(=O)[O][Sn]([c]1ccccc1)([c]1ccccc1)[c]1ccccc1` ?
6.80

###

Give measured IC50 for each item. Keep answers brief.
# system_tested: GST A2-2 (Homo sapiens)
# Sequence (P09210 whole entry): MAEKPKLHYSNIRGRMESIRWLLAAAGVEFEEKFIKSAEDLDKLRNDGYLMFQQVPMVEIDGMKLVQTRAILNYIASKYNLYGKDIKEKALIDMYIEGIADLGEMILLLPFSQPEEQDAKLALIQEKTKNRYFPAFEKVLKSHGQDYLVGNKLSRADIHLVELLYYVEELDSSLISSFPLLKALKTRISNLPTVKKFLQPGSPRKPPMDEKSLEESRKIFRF
# protocol_description: biochemical
One number for each entry, in nM.

[Cl][Pb]([c]1ccccc1)([c]1ccccc1)[c]1ccccc1 [Ph3PbCl] :: 84

I have this compound here, C[CH2][Ge]([Cl])([CH2]C)[CH2]C [Et3GeCl] , and I need its recorded IC50.
800
